TARGET OR TEST SYSTEM: PI3K-alpha (Homo sapiens)
Sequence (P42336 whole entry, species assumed): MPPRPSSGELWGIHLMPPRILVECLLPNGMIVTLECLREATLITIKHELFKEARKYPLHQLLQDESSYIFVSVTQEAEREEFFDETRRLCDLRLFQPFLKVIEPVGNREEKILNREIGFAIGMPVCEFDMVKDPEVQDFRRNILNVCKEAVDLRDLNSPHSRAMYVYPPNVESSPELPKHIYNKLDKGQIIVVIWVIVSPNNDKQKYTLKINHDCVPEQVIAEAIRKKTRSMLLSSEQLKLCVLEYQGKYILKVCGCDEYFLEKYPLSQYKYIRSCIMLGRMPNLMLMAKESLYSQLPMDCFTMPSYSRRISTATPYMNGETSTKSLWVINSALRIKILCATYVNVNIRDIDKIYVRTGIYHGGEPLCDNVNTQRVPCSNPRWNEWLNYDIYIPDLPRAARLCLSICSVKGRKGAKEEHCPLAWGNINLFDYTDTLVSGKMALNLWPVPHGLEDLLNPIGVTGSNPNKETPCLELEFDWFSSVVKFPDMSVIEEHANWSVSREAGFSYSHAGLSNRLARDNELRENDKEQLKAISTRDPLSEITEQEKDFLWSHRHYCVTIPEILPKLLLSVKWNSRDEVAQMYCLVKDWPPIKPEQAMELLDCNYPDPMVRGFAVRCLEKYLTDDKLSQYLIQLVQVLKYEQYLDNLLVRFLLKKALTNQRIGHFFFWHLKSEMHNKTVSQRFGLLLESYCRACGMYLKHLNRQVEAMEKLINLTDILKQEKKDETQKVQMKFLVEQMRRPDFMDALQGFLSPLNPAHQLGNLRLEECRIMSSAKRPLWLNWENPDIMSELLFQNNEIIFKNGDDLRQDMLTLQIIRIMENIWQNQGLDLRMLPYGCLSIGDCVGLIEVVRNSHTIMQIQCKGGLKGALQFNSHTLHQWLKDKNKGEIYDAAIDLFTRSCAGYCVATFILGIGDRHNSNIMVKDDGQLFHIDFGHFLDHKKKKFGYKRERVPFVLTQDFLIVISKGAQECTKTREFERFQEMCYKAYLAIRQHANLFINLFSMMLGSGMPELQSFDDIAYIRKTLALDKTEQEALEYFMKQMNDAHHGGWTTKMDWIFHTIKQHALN
Sequence (P27986 whole entry partner, species assumed): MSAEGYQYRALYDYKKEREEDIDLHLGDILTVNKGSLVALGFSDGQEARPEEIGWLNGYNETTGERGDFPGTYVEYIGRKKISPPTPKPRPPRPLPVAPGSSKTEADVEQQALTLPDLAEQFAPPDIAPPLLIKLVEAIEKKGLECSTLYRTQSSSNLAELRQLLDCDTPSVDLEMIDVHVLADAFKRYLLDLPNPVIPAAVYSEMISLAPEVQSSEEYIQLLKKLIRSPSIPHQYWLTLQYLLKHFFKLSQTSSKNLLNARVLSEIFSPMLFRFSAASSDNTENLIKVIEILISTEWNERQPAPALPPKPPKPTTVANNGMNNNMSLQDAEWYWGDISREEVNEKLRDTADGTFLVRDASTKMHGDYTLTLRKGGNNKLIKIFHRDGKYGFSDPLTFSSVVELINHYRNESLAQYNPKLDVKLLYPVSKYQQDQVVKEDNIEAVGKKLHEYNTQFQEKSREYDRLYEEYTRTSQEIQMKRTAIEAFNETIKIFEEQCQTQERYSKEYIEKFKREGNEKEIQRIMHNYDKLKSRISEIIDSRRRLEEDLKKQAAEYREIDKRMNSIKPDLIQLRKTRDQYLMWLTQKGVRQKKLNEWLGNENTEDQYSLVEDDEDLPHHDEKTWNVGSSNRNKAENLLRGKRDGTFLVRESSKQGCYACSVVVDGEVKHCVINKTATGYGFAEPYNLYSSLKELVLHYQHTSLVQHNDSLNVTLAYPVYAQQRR
ASSAY PROTOCOL: PI3K-alpha fluorescence polarization assay
Type: biochemical
CONDITION DESCRIPTION: read-out: PI3Kα Avg. IC50
PROPERTY NAME: IC50 (nM)

>  <MOLECULE>
Cn1cc(C=C2Oc3cc(O)cc(O)c3C2=O)c2c(-c3ccccc3)cccc21 (single isomer, unassigned) [Compound 544]

>  <PROPERTY NAME>
IC50

>  <OBSERVED RESULT>
266

$$$$
>  <MOLECULE>
CNC(=O)Nc1ccc2c(c1)C(=O)/C(=C/c1c(-c3c(C)nn(C)c3C)n(CCN3CCNCC3)c3ccc(OC)cc13)O2 [Compound 656]

>  <PROPERTY NAME>
IC50

>  <OBSERVED RESULT>
0.95

$$$$

I. COc1cc(F)c2[nH]c(-c3c(C)nn(C)c3C)c(/C=C3\Oc4ccc(NC(=O)NCCN5CCCC5)cc4C3=O)c2c1 [Compound 727]
II. COc1ccc2c(c1)c(/C=C1\Oc3cc(O)cc(O)c3C1=O)c(C(=O)N(C)C)n2CCn1ccnc1 [Example 314]
III. COc1ccc2c(c1)c(/C=C1\Oc3ccc(Br)cc3C1=O)cn2CCCN(C)C [Compound 516]
IV. COc1ccc2c(c1)c(/C=C1\Oc3cc(O)cc(C)c3C1=O)c(C1CC1)n2CCN1CCN(C)CC1 [Example 464]
V. N#CCCCn1cc(C=C2Oc3cc(O)cc(O)c3C2=O)c2cc(F)ccc21 [Example 231]
Task: Write the entries in order, lowest recorded IC50 first. Your reply should list the labels following the order given in the request.
Result: I, IV, II, V, III

---

TARGET OR TEST SYSTEM: PI3K-gamma (Homo sapiens)
Sequence (P48736 whole entry, species assumed): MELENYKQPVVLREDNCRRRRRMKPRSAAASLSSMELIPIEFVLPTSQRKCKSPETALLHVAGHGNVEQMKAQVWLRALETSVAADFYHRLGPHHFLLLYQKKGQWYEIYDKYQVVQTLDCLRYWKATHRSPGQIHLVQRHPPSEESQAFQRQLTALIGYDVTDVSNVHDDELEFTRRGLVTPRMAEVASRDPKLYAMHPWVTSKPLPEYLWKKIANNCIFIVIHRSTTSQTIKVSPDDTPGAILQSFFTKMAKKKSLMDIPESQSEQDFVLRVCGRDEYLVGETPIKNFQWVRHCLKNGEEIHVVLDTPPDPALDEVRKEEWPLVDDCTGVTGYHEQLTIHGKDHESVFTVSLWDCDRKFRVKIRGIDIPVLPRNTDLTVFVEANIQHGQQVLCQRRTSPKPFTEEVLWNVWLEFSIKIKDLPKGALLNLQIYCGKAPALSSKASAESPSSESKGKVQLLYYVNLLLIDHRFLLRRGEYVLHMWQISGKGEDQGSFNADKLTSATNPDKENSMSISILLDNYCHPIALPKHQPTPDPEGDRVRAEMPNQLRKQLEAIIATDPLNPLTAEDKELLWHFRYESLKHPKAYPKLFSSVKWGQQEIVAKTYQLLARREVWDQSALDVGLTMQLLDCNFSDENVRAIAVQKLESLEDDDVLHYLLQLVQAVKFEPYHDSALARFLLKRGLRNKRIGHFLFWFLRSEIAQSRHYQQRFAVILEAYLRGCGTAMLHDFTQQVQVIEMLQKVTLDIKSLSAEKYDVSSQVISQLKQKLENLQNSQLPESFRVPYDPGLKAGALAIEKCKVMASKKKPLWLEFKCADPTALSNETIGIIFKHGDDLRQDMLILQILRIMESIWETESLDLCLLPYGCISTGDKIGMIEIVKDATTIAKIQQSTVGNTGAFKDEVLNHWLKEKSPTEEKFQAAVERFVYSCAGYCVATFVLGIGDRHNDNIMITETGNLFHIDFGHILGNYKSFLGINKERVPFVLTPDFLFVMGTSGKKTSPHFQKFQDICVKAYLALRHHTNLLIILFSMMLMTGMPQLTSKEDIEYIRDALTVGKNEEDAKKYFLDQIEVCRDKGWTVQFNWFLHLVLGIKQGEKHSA
ASSAY PROTOCOL: PI3K-gamma fluorescence polarization assay
Assay type: biochemical
CONDITION DESCRIPTION: PI3Kγ Avg. IC50
pIC50: −log10 of the molar value.
PROPERTY NAME: pIC50

>  <CHEMICAL SMILES>
COc1ccc2c(c1)c(C=C1Oc3cc(O)cc(O)c3C1=O)c(C)n2CCCCl

>  <OBSERVED RESULT>
7.13

$$$$
>  <CHEMICAL SMILES>
Cn1cc(/C=C2\Oc3cc(O)cc(O)c3C2=O)c2c(-c3ccc(-c4ccc(CN)cc4)cc3)cccc21

>  <OBSERVED RESULT>
5.02

$$$$
>  <CHEMICAL SMILES>
CNC(=O)Nc1ccc2c(c1)C(=O)/C(=C/c1c(-c3c(C)nn(CCOC)c3C)[nH]c3ccc(OC)cc13)O2

>  <OBSERVED RESULT>
6.61

$$$$
>  <CHEMICAL SMILES>
O=C1C(=Cc2c[nH]c3cccc(-c4ccccc4)c23)Oc2cc(O)cc(O)c21

>  <OBSERVED RESULT>
5.66

$$$$

P. COc1ccc2c(c1)c(C=C1Oc3cc(O)cc(O)c3C1=O)cn2CCCCN1CCOCC1
Q. COc1ccc2c(c1)c(/C=C1\Oc3cc(O)cc(O)c3C1=O)c(C(=O)N(C)C)n2CCCN(C)C
R. CN(C)CCn1c(-c2ccccc2)c(C=C2Oc3cc(O)cc(O)c3C2=O)c2ccccc21
Task: Write the entries in order, lowest recorded pIC50 first. Your reply should list the labels following the order given in the request.
Result: R, P, Q
